Attribution: ChEMBL document CHEMBL1139967

Experiment description: in vitro
Test conditions: human, LLC-PK1
Description: Apparent permeability across L-MDR1 cells
Measurement kind: Papp (×10⁻⁶ cm/s)

(I) C[C@@]1(N)Cc2cccc(c2)CC[C@H](c2ccccc2)NC(=O)c2cc(Br)cc(c2)COC1=O
(II) CN(c1cc2cc(c1)C(=O)N[C@@H](c1ccccc1)CCc1cccc(c1)C[C@@](C)(N)C(=O)OC2)S(=O)(=O)C(F)(F)F
(III) C[C@@]1(N)Cc2cccc(c2F)CC[C@H](c2ccc(F)cc2)NC(=O)c2cc(cc(-c3ccccc3C#N)c2)COC1=O
Place the item with the largest Papp first, then continue in falling order, using the list above. Your reply should list the labels following the order given in the request.
II, I, III
